Quick record: pKi, human PDE2A1 (Homo sapiens (Human), UniProt O00408).
pKi: −log10 of the molar value.
value-kind: pKi

Some solved entries appear below for comparison.
{"compound": "Cc1nn2c([C@@H](C)c3ccc(C(F)(F)F)cc3)nc(C)c2c(=O)[nH]1 (single isomer, unassigned)", "val": 7.76}
{"compound": "Cc1nc2c(C(C)c3cccc(C(F)(F)F)c3F)nn(CCO)c2c(=O)[nH]1 (single isomer, unassigned) [Example 9]", "val": 5.55}

a: Cc1nn2c(C(C)c3ccc(C4(C)CC4)cc3)nc(CO)c2c(=O)[nH]1 (single isomer, unassigned)
b: Cc1nn2c(C(C)c3ccc(C(F)(F)F)c(F)c3)nc(CO)c2c(=O)[nH]1 (single isomer, unassigned)
Problem: Which entry has a larger number for pKi, a or b ? Reply briefly: the label of your chosen item.
Result: b
